Listed compounds paired with reported PI100 (percent inhibition)
Biological target: FmlHLD (Escherichia coli, UniProt P77588)
Construct: 6xHis (C); made in house; host or cells: E. coli C600, periplasm, pTRC99a
Sequence (P77588 25-182): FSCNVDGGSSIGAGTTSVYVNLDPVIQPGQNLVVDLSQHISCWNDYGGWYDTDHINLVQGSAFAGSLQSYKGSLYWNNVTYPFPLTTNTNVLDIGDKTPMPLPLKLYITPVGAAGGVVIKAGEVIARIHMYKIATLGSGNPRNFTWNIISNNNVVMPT
Test: biochemical
Format: binding, E. coli
Conditions: galactoside at 100 μM; mean with standard error of the mean; 100 µM
Value expressed in %; do not type the unit.

The examples below pair each entry with its known result.
compound="O=c1ccc2nc3ccc(O[C@@H]4O[C@H](CO)[C@H](O)[C@H](O)[C@H]4O)cc3oc-2c1 [Compound 15β, Resorufin galactoside]" tgt="FmlHLD (Escherichia coli, UniProt P77588)" readoutunit=% reported=80.4
compound="N#Cc1ccccc1O[C@@H]1O[C@H](CO)[C@H](O)[C@H](O)[C@H]1O [Compound 3β, 2-cyanophenyl α/β-D-galactopyranoside]" tgt="FmlHLD (Escherichia coli, UniProt P77588)" readoutunit=% reported=94.5
compound=OC[C@H]1O[C@@H](Oc2cccc(-c3ccccc3)c2)[C@H](O)[C@@H](O)[C@H]1O tgt="FmlHLD (Escherichia coli, UniProt P77588)" readoutunit=% reported=56.9

Look at this compound and give its reported PI100 (percent inhibition). `OC[C@H]1O[C@@H](Oc2c[nH]c3ccccc23)[C@H](O)[C@@H](O)[C@H]1O`
21.7

// query PI100 (percent inhibition) value for entry `Nc1ccc(O[C@@H]2O[C@H](CO)[C@H](O)[C@H](O)[C@H]2O)cc1`
65.1

Param item = N#Cc1ccc(O[C@@H]2O[C@H](CO)[C@H](O)[C@H](O)[C@H]2O)cc1 [Compound 9β, 4-cyanophenyl β-D-galactopyranoside] ; retrieve measured PI100 (percent inhibition).
85.7

# lookup: PI100 (percent inhibition) of Cc1ccc(O[C@@H]2O[C@H](CO)[C@H](O)[C@H](O)[C@H]2O)cc1 [Compound 8β, 4-methylphenyl β-D-galactopyranoside]
85.8
